# TARGET SYSTEM: Polθ protein (amino acids 2-2590) (Homo sapiens, UniProt O75417)
# Sequence (O75417 2-2590): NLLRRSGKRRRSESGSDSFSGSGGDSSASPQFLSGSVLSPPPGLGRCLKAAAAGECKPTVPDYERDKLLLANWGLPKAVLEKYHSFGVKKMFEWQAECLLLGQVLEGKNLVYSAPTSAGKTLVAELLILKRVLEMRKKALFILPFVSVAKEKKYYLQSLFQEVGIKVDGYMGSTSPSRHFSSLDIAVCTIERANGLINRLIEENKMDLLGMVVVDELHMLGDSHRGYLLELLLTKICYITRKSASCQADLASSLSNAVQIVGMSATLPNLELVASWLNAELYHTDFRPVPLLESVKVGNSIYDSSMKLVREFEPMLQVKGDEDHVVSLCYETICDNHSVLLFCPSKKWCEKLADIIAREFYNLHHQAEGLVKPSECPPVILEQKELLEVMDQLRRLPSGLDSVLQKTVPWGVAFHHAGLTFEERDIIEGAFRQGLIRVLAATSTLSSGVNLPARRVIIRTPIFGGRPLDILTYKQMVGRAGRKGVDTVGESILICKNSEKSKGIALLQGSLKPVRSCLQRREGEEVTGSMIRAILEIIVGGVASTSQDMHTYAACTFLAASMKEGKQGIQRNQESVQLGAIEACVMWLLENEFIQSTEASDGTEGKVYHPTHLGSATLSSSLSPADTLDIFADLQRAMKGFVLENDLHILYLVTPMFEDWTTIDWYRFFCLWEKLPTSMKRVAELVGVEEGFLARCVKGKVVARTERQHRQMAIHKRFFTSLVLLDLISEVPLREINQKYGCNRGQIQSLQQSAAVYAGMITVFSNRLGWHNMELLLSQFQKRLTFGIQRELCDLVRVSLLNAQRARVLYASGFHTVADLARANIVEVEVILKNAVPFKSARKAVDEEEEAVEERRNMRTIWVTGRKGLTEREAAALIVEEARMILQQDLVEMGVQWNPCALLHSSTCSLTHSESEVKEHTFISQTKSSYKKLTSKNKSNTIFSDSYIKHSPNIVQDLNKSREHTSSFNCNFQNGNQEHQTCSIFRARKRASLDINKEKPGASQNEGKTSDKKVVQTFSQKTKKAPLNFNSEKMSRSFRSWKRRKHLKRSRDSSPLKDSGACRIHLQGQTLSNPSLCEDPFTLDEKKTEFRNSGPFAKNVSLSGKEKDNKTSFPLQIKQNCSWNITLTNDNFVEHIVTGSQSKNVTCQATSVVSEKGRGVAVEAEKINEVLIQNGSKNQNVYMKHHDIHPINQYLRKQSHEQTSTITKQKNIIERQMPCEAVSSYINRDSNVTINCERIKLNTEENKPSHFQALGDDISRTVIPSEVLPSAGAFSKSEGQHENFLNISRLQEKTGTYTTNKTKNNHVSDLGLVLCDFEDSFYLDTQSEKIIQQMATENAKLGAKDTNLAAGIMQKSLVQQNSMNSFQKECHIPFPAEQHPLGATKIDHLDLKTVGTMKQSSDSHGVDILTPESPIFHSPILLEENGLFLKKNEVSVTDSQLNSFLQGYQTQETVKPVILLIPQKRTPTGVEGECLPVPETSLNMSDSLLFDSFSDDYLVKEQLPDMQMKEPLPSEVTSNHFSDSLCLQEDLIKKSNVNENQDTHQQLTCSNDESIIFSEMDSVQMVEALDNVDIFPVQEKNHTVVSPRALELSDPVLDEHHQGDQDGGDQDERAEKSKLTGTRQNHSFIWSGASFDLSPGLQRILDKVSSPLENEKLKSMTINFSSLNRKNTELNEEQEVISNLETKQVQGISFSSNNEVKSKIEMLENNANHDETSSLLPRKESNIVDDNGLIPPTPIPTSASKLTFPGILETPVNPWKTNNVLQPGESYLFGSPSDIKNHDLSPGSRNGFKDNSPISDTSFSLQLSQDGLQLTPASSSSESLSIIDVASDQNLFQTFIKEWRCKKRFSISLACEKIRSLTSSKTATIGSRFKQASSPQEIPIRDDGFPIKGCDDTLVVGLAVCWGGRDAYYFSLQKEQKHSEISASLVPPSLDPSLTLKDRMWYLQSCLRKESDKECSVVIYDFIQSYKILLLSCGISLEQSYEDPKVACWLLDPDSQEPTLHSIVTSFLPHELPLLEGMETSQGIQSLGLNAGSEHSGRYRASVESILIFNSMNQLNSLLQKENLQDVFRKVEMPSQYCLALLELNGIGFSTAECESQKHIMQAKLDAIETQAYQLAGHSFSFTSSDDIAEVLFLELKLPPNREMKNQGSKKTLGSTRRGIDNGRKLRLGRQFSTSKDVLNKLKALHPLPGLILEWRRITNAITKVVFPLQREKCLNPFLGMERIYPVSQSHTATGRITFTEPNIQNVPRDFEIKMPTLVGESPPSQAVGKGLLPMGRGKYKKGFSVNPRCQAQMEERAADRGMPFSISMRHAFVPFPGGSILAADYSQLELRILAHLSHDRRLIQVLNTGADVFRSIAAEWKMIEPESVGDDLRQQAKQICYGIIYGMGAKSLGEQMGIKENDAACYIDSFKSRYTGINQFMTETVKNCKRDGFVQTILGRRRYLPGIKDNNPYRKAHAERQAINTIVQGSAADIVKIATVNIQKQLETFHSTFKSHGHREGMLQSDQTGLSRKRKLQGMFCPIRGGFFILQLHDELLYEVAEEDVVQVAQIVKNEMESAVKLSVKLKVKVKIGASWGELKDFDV
# EXPERIMENT NOTES: Polθ full length enzyme potency assay (PicoGreen)
# CONDITION INFO: Polθ IC50 (nM), full length N-His, C-term FLAG tagged Polθ, PicoGreen fluorescence, 12 point concentration response
PROPERTY NAME: IC50 (nM)

Query :: May I ask what IC50 has been recorded for Cc1cccc(N(C)C(=O)[C@@H]2C[C@H](O)CN2c2cc(C(F)(F)F)cc(C)n2)c1 ?
Result :: 12

Query :: May I ask what IC50 has been recorded for Cc1cc(C(F)(F)F)cc(N2C(=O)NC[C@H]2C(=O)N(C)c2ccc3cc[nH]c3n2)n1 ?
Result :: 3

Query :: May I ask what IC50 has been recorded for [2H]C([2H])([2H])N(C(=O)[C@@H]1[C@H](O)[C@H](O)C(=O)N1c1cc(C(F)(F)F)cc(C)n1)c1ccc(F)c(Cl)c1 ?
Result :: 11

A. CCN(C(=O)[C@@H]1C[C@H](O)CN1c1nc(C)cc(C)c1C#N)c1cccc(C)c1
B. Cc1cc(C(F)(F)F)cc(N2C(=O)OC[C@H]2C(=O)N(C)c2ccc(Br)c(Cl)c2)n1
Query :: # query: argmin of IC50 over A and B Provide the label of your selected option as the answer.
Result :: B

A. Cc1cc(C(F)(F)F)cc(N2C(=O)[C@@H](O)[C@@H](O)[C@H]2C(=O)N(C)c2ccc(F)c(Cl)c2)n1
B. Cc1cc(C(F)(F)F)c(C#N)c(N2CCC[C@H]2C(=O)N(C)c2ccccc2)n1
Query :: Which shows the larger IC50 value: A or B ? Provide the label of your selected option as the answer.
Result :: B
(B: 72 nM, A: 8 nM)
